# test-target: Voltage-gated potassium channel subunit beta-2 (Rattus norvegicus) (UniProt P62483)
# Sequence (P62483 whole entry, looked up): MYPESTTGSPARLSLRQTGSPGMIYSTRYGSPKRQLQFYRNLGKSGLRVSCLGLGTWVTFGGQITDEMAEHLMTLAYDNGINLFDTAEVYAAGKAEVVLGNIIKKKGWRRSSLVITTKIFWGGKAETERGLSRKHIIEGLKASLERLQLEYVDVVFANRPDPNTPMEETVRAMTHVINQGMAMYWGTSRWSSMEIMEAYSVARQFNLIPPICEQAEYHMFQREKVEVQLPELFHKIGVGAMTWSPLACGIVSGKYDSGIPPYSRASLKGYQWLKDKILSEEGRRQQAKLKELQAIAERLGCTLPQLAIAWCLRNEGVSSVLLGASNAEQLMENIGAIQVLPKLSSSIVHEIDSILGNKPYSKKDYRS
# assay-details: enhancers of rat Kvbeta2 NADPH turnover – biochemical, NADPH fluorescence, primary screen (AID 623);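 note: fluorescence intensity change per second fitted from 20 to 320 s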
# recorded-conditions: Recombinant KvBeta, NADPH fluorescence decrease slope, 10 min; at 10 µM; stronger effect = lower value
Measured NADPH fluorescence slope values are reported for all entries that follow.
// print number alone

CC(NC(C)(C)C)C(=O)c1cccc(Cl)c1 (stereo not given)
-3.7e-05
CCCCCCn1c(O)c(C=NC2CCN(Cc3ccccc3)CC2)c(=O)[nH]c1=O
-2.2e-05
CC(C)OC(=O)c1c(N)n(CC2CCCO2)c2nc3ccccc3nc12 (stereo not given)
1.4e-05
O=C(O)CCCc1ccc(N(CCCl)CCCl)cc1
-0.000123
CCOc1cc2[nH]c(=S)n(CCCC(=O)N3CCC4(CC3)OCCO4)c(=O)c2cc1OCC
7.5e-06
Cc1ccc(C(=O)C2CN3CCC2CC3)cc1 (stereo not given)
-2.3e-05
OC1(c2ccc(F)cc2)CCNC1 (stereo not given)
-0.000119
O=C1C2CCCN2C(c2ccc(Cl)c(Cl)c2)N1c1ccccn1 (stereo not given)
-4e-05
CC(C)[C@H]1C(=O)N2CCC[C@H]2[C@]2(O)O[C@](NC(=O)[C@@H]3C=C4c5cccc6[nH]cc(c56)C[C@H]4N(C)C3)(C(C)C)C(=O)N12
-1.8e-05
Cc1ccc(C2SCC(=O)Nc3c2c(=O)[nH]n3C2CCOC(C)(C)C2)cc1 (stereo not given)
-3.9e-05

Given the entry `CCOC(=O)c1cccc([P+](=O)O)c1` , report its measured NADPH fluorescence slope. -3.4e-05

Requested read-out: NADPH fluorescence slope. Entry: C=CCN1C(=O)C2(C(C(=O)OCC)=C(N)Oc3c2c(=O)oc2ccccc32)c2ccccc21 (stereo not given) -0.000107

Need NADPH fluorescence slope of CCC(C)NC(=O)c1c(N)n(CC2CCCO2)c2nc3ccccc3nc12 (stereo not given) , thanks. 1.6e-05

Consider the compound shown here: `CN(C)CCN=Cc1c(O)n(-c2cccc3ccccc23)c(=O)[nH]c1=O` What is its recorded NADPH fluorescence slope? -4.5e-05

Query: NADPH fluorescence slope; subject: `CC1=C(C(=O)OC(C)C)[C@]2(C(=O)N(CC(N)=O)c3ccccc32)C(C#N)=C(N)O1` -5.8e-05

Consider the compound `Cc1ccc(C)c(NC(=O)CSc2nnc([C@@H](N)Cc3c[nH]c4ccccc34)o2)c1` and give its measured NADPH fluorescence slope. -1.2e-05

// returns reported NADPH fluorescence slope for input COc1ccc2c(c1OC)C(=O)OC2c1c(O)n(C2CCCCC2)c(=O)[nH]c1=O (stereo not given) -7.1e-05

Quick check: NADPH fluorescence slope of CC(=O)N1CC(=O)Nc2ccc(Cl)cc2C1c1ccc(F)cc1 (stereo not given) ? -1.5e-05

What measured NADPH fluorescence slope goes with `COc1ccc(C(=O)N2CCCC2=O)cc1` ? -4.5e-05

If you can, please state the reported NADPH fluorescence slope value of `CNCCc1nc(N)n[nH]1` . -4.4e-05

Requested field: NADPH fluorescence slope. Item: `CCCCn1c(O)c(C=NCCN2CCCCC2)c(=O)[nH]c1=O` 9.8e-06

Would you kindly share the measured NADPH fluorescence slope for `CCCCc1nc(N2CCNCC2)c(C#N)c2c1CSC(C)(C)C2` ? -0.000122

Using the record for CCCCn1c(O)c(C=NC2CCCCC2N)c(=O)[nH]c1=O (stereo not given) , report its NADPH fluorescence slope. -4e-05

Consider the compound shown here: `CN1CCC(OC(=O)C2c3ccccc3Oc3ccccc32)CC1` What is its recorded NADPH fluorescence slope? 1.2e-05

NADPH fluorescence slope lookup needed for `Cc1ccc2nc(N3CCN(C)CC3)[nH]c2c1` , thanks. 4.2e-05

Any idea what NADPH fluorescence slope was measured for COC(=NC1CCCC1)C(O)c1c[nH]c2ccccc12 (stereo not given) ? -2.7e-05

* * *

# assay-details: blockers of RIG-like receptor reporter activation – cell-based, Sendai virus stimulus, luciferase, 10K MLSCN set, TLR/RLR signaling modifier project, primary screen (AID 602276);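 note: firefly luciferase from ISG56 promoter only with Renilla not read in this screen; 0% = Sendai virus plus DMSO and 100% = medium plus DMSO without virus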
# recorded-conditions: HEK293 RL24 IRF3 luciferase reporter, at 10 µM, stronger effect = higher value
Recorded inhibition for the following molecules
Give a bare numeral; the unit % is implied.

# example entries with known answers
CC(C)OCCCNC(=O)c1c(N)n(Cc2cccs2)c2nc3ccccc3nc12
14.8
CC#CP(=O)(OCC)C(O)(c1ccccc1)C(F)(F)F (configuration not stated)
15
CC(C)C(=O)N1CCN(CCN=Cc2c(O)n(C)c(=O)n(C)c2=O)CC1
-6.82
CCOc1cc2[nH]c(=S)n(CCCC(=O)N3CCC4(CC3)OCCO4)c(=O)c2cc1OCC
-5.57
CC1=NOC2(C)Nc3ncnn3C(c3ccccc3)C12 (configuration not stated)
-5.02
CN1CCN(C(=O)OC2c3nccnc3C(=O)N2c2ccc(Cl)cn2)CC1 (configuration not stated)
15.5

For the molecule `CCCCn1c(O)c(C(C)=NCCc2ccccc2)c(=O)[nH]c1=O` , what inhibition is on record? 3.98

Please look up its inhibition: CC(C)OC(=O)c1c(N)n(CC2CCCO2)c2nc3ccccc3nc12 (configuration not stated) 9.43

Which inhibition is reported for this molecule? `CN1CCC(OC(=O)C2c3ccccc3Oc3ccccc32)CC1` 7.89

Value lookup for inhibition; key = COCCOC(=O)C1=C(N)Oc2c(c(=O)oc3ccccc23)C1c1ccncc1 (configuration not stated) 14.5

* * *

# test-target: Voltage-gated potassium channel subunit beta-2 (Rattus norvegicus) (UniProt P62483)
# assay-details: inhibitors of rat Kvbeta2 reductase activity – biochemical, NADPH fluorescence, primary screen (AID 622);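 note: slope of raw intensity against log time taken from 70 to 1610 s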
# recorded-conditions: recombinant KvBeta, 4-cyanobenzaldehyde reduction, at 10 µM
The source made the active and inactive calls.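 Rule for the calls: active = fluorescence slope higher than the sample average by over 3 SD (cut at about -0.22 in these data, passing the limit was not always enough); inactive = the rest.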
One label from this list, please: active, inactive

CCC(=NCC1CCCO1)c1c(O)n(Cc2ccccc2)c(=O)[nH]c1=O (configuration not stated)
inactive

Check the results log: what was the call for `Cc1ccc2c(c1)[C@@H]1CN(C)CC[C@@H]1N2C(=O)Nc1cccc(C(F)(F)F)c1` ? inactive

* * *

# fluorescence slope per record follows
# test-target: Muscarinic acetylcholine receptor M4 (Homo sapiens)
# assay-details: M4-linked GIRK flux change, two-sided – cell-based, HEK293 M4/GIRK, thallium flux, BTC-AM, M4 allosteric agonist project, primary screen (AID 625);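 note: thallium influx through GIRK channels coupled to M4 in HEK293 cells with BTC-AM dye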
# recorded-conditions: at 10 µM, actives lie on both sides
Number, no unit, nothing else.

Consider the molecule shown here: `CCOC(=O)c1cc(C)n(CCc2cnc[nH]2)c1C` What is its recorded fluorescence slope? 0.00519

For CC(=O)N1CC(=O)Nc2ccc(Cl)cc2C1c1ccc(F)cc1 (stereo not drawn) , what is its reported fluorescence slope? 0.00574

Given the molecule `O=C(CN1CCN(CCO)CC1)Nc1ccc(Cl)cc1C(=O)c1ccccc1` , what is its reported fluorescence slope? 0.00435

Given the entry `COC(=O)c1c(C)n(Cc2ccc3c(c2)OCO3)c2ccc(O)cc12` , report its measured fluorescence slope. 0.0049

For the molecule shown here, COc1ccc(OC)c(C2=NOC(C(=O)N3CCC4(CC3)OCCO4)C2)c1 (stereo not drawn) , give the reported fluorescence slope. 0.00835

* * *

# test-target: Voltage-gated potassium channel subunit beta-2 (Rattus norvegicus)
# assay-details: enhancers of rat Kvbeta2 NADPH turnover – biochemical, NADPH fluorescence, primary screen (AID 623);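 note: fluorescence intensity change per second fitted from 20 to 320 s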
# recorded-conditions: Recombinant KvBeta, NADPH fluorescence decrease slope, 10 min; at 10 µM; stronger effect = lower value
Listing: NADPH fluorescence slope of selected molecules
Respond with the number and no other words.

# example entries with known answers
CN1CCc2nc(SCC(=O)OC(C)(C)C)c(C#N)cc2C1
-4.7e-05
C[C@H]1CCCC(=O)CCCCCc2cc(O)cc(O)c2C(=O)O1
2.4e-05
CC(C)N(CCC(C(N)=O)(c1ccccc1)c1ccccn1)C(C)C (configuration not stated)
-7.6e-05
C[N+]1(C)CCc2cc3c(cc2[C@H]1[C@@H]1OC(=O)c2c1ccc1c2OCO1)OCO3
-3.8e-05
N#Cc1ccccc1Cn1cc(C(=O)C2CC2)c2ccccc21
-7.2e-05

Using the record for O=C1OCCC1NC1=NCCC1 (configuration not stated) , report its NADPH fluorescence slope. -5e-05

Data request, read-out NADPH fluorescence slope, for COC1=CC(=O)OC(/C=C/c2ccccc2)C1 (configuration not stated) -5.6e-05

Entry `CC[C@@H](CO)NC(=O)[C@@H]1C=C2c3cccc4c3c(cn4C)C[C@H]2N(C)C1` : reported NADPH fluorescence slope = ? -2e-06

* * *

# assay-details: inhibitors of TNFa-induced NFkB p65 translocation, primary screen, imaging, HUVEC, MLSMR starter and 10KST1 sets (AID 438);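 note: compound added about 3h40 before a 20 min TNFalpha stimulation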
# recorded-conditions: HUVEC TNFa-induced p65 nuclear translocation; measured here: nuclei count (cytotoxicity indicator), at 2.08 µM
cell count values for the compounds below.
Respond numerically, and do not add a unit to the figure.

Below, each entry is followed by its recorded cell count result.
COc1ccc(Cn2c(O)c(C=NCCN3CCOCC3)c(=O)[nH]c2=O)cc1
587
NCC(CC(=O)O)c1ccc(Cl)cc1 (configuration not stated)
601
CCCc1nc2ccccc2c(=O)n1-c1ccccc1OC
587
Cn1c(O)c(C=NCCCNC2CCCCC2)c(=O)n(C)c1=O
420
C[C@H]1OC[C@@H](C[N+](C)(C)C)O1
534

# query: cell count of entry `CCCCn1c(O)c(C(CC)=Nc2cccc(C(=O)O)c2)c(=O)[nH]c1=O` 688

# cell count lookup, item COC(=NC1CCCC1)C(O)c1c[nH]c2ccccc12 (configuration not stated) 602

Given COP(=O)(OC)C(O)C(Cl)(Cl)Cl (configuration not stated) , state its recorded cell count. 659

Please report the recorded cell count for `Cn1c(=O)cc(SCC(=O)N2CCC3(CC2)OCCO3)c2ccc(Cl)cc21` . 442

Any idea what cell count was measured for CCOCCN1CCC(OC(C)=O)C(C)C1 (configuration not stated) ? 461

Please report the recorded cell count for CC[N+]1(C)CCCC(OC(=O)C(O)(c2ccccc2)c2ccccc2)C1 (configuration not stated) . 672

Would you mind telling me what cell count value was observed for `CCCCCCOc1ccc(CN2CCN(C)CC2)cc1` ? 302

The values you see were collected from PubChem BioAssay.
